readout-name: melting point

>>> df
                                   molecule  reported_value
0  NS(=O)(=O)NCCC1COc2ccccc2O1 (centres unmarked) [Compound #16]   101 to 103 °C
1  CN(C)S(=O)(=O)NCC1COc2ccccc2O1 (racemic) [Compound #6]     76 to 78 °C
2  CN(CC1COc2ccccc2O1)S(N)(=O)=O (racemic) [Compound #7]     97 to 98 °C
3  NS(=O)(=O)NCC1CCc2ccccc2O1 (centres unmarked) [Compound #10, Chroman-2-ylmethylsulfamide]   100 to 101 °C
4  NS(=O)(=O)NC[C@H]1COc2cc(Cl)c(Cl)cc2O1 [Compound #29]   119 to 121 °C
